# targetEntity: L-lactate dehydrogenase (Plasmodium falciparum (isolate CDC / Honduras)) (UniProt Q27743)
# Sequence (Q27743 whole entry, looked up): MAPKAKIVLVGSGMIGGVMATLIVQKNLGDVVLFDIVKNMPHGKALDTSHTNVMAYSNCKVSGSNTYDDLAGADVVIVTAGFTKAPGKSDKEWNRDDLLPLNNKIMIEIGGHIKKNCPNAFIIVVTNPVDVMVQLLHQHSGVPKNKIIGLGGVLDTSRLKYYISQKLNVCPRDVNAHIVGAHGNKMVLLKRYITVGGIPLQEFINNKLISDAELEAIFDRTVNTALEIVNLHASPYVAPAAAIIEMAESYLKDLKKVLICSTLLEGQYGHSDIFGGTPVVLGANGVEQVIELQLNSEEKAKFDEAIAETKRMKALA
# protocol: PfLDH activity inhibition – cell lysate, 3D7 strain, counter-screen for P. falciparum growth inhibition project (AID 2304);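 also: 0% = vehicle and 100% = reference inhibitor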
# conditionDetails: P. falciparum 3D7 crude extract, LDH APAD/NBT absorbance; at 2 µM; stronger effect = higher value
endpointLabel: inhibition (%)
Numbers only, in %.

As a guide, the following entries are already answered.
>  <compound>
COc1cc(Cc2cnc(N)nc2N)cc(OC)c1OC

>  <measurementUnit>
%

>  <inhibition>
3

$$$$
>  <compound>
CCc1cn2c3c(cc(C(=O)N[C@@H](Cc4cc(F)cc(F)c4)[C@H](O)CNC4CC4)cc13)N(C)S(=O)(=O)CC2

>  <measurementUnit>
%

>  <inhibition>
0

$$$$
>  <compound>
Cc1[nH]c(C)c(-c2ccc(CCc3ccc(N)cc3)cc2)c(=O)c1Cl

>  <measurementUnit>
%

>  <inhibition>
5

$$$$
>  <compound>
Oc1ccccc1CN(CCCN(Cc1ccccn1)Cc1ccccc1O)Cc1ccccn1

>  <measurementUnit>
%

>  <inhibition>
3

$$$$
>  <compound>
COc1ccc(Cl)cc1S(=O)(=O)Nc1cccc(CCN2CCC(N3CCCCC3)CC2)c1

>  <measurementUnit>
%

>  <inhibition>
4

$$$$

Please supply inhibition for each of the following items, keeping them in order.
1. CCCn1c(Sc2ccc(C#N)c([N+](=O)[O-])c2)nnc1-c1cc(OC)cc(OC)c1
2. CCS(=O)(=O)Nc1ccc2[nH]c(O)c(C(=Nc3ccc(CN4CCCCC4)cc3)c3ccccc3)c2c1
3. CN1CCN(c2cccc(-c3nnc(-c4cccc(OCC(=O)NCc5ccc(C(F)(F)F)cc5)c4)o3)c2)CC1
4. COc1ccc(NC(=O)NC2CCN(CCCOc3ccnc4cc(Cl)ccc34)C2)cc1OC (centres undefined)
5. Cc1cccc2[nH]c(-c3ccc(-c4ccc(CN5CCCCC5CO)cc4)cc3)nc12 (centres undefined)

1: 6; 2: 6; 3: -4; 4: 1; 5: 1

Answer for every listed entry: what is its inhibition? The entries follow.
1. OC(CNc1ccnc(Nc2cccc(Cl)c2)n1)c1cccc(C(F)(F)F)c1 (centres undefined)
2. O=C(Nc1ccc(-c2cccc(-c3nc4ccc(C(F)(F)F)cc4[nH]3)c2)cc1)c1cccnc1
3. Fc1ccc2ncc(Cl)c(CCN3CCC(NCc4cc5c(cn4)OCCO5)CC3)c2c1
4. O=C(NC1CC1)c1cnc(N2CCCC(c3ccccc3)C2)c(Cl)c1 (centres undefined)
5. COc1ccccc1N1CCN(Cc2cc(C(C)C)c(C)cc2O)CC1
6. CCN(CC)C(=NCCCCCCN=C(NC(N)=NCc1cccc(Cl)c1)N(CC)CC)NC(N)=NCc1cccc(Cl)c1
7. CCNc1cc(C(=O)N[C@@H](Cc2ccc(F)c(F)c2)[C@H](O)CNCc2cccc(OC)c2)cc(N2CCCCS2(=O)=O)c1

4
-5
-4
-3
2
-8
-7

Could you report inhibition for every entry in the following list?
1. CN(C)CCOc1cc(NC(=O)Nc2ccc(-c3ccncc3)c(C(F)(F)F)c2)ccc1Cl
2. O=C(NC1CCN(Cc2ccccc2)CC1)c1ccc(-c2nc3cc(F)c(F)cc3[nH]2)s1

1: 3; 2: 1

###

# protocol: SU-DIPG-VI glioma cell viability, MIPE4.0 library, CellTiter-Glo luminescence, qHTS (AID 1347066);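 also: cells exposed to compound for 48 hours before readout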
# conditionDetails: CellTiter-Glo ATP luminescence
Records with an inconclusive call do not appear. Activity calls are given as the source filed them. No cut-off is given here; in the data, nearly all actives have AC50 up to about 30 µM.
endpointLabel: AC50

Examples with answers:
>  <molecule>
O=C(NOCC1CC1)c1ccc(F)c(F)c1Nc1ccc(I)cc1Cl

>  <AC50>
10.5 µM (active)

$$$$
>  <molecule>
CC=CC1=C(C(=O)O)N2C(=O)[C@@H](NC(=O)[C@H](N)c3ccc(O)cc3)[C@H]2SC1

>  <AC50>
inactive

$$$$
>  <molecule>
CC(C)[N+]1(C)C2CCC1CC(OC(=O)C(CO)c1ccccc1)C2 (configuration not stated)

>  <AC50>
inactive

$$$$
>  <molecule>
Cn1ccc2cc3c(cc21)CCN3C(=O)Nc1cccnc1

>  <AC50>
inactive

$$$$
>  <molecule>
CC(=O)[C@H]1CC[C@H]2[C@@H]3CC=C4C[C@@H](O)CC[C@]4(C)[C@H]3CC[C@]12C

>  <AC50>
inactive

$$$$

// each listed molecule needs a value for AC50
1. CN1C2CCC1CC(OC(=O)C(CO)c1ccccc1)C2 (configuration not stated)
2. CC(C)OC(=O)OCOP(=O)(CO[C@H](C)Cn1cnc2c(N)ncnc21)OCOC(=O)OC(C)C
3. C[C@]12CCC(=O)C=C1[C@@H]1C[C@@H]1[C@H]1[C@@H]3[C@@H]4C[C@@H]4[C@@]4(CCC(=O)O4)[C@@]3(C)CC[C@@H]12
4. O=C(O)c1cn(C2CC2)c2cc(N3CCNCC3)c(F)cc2c1=O

["inactive", "inactive", "inactive", "inactive"]

###

# protocol: stimulators of insulin release from INS-1E, primary screen, cell-based, 5 mM glucose, NPC library (AID 1117329); also: reference of the scale not given here
# conditionDetails: rat INS-1E insulin secretion, at 10 µM
The source made the active and inactive calls.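 Rule for the calls: active = compound raises insulin release from rat beta cells at 5 mM glucose, no numeric limit stated; inactive = the rest.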
Log the outcome using a class from active, inactive

Take a look at these entries with their results.
>  <molecule>
CCC(C)(C)c1ccc(CC(C)CN2C[C@@H](C)O[C@@H](C)C2)cc1 (some centres undefined)

>  <classLabel>
inactive

$$$$
>  <molecule>
C=CC(=O)Nc1cc2c(Nc3ccc(F)c(Cl)c3)ncnc2cc1OCCCN1CCOCC1

>  <classLabel>
inactive

$$$$
>  <molecule>
CN=C(NC#N)Nc1ccc(C2=NNC(=O)CC2C)cc1 (centres undefined)

>  <classLabel>
inactive

$$$$

Check the results log: what was the call for `N#Cc1cc(NC(=O)C(=O)O)c(Cl)c(NC(=O)C(=O)O)c1` ?
inactive

Given `NS(=O)(=O)c1cc(Cl)c(Cl)c(S(N)(=O)=O)c1` , state the outcome it received in this test.
inactive

Per the records of this test, what outcome belongs to CCCNC(C)C(=O)Nc1c(C)csc1C(=O)OC (centres undefined) ?
inactive

For `CCN1CCC[C@H]1CNC(=O)c1c(OC)ccc(Br)c1OC` , which call appears in the assay record?
inactive

What did this assay record as the result for `O=C(O)c1cccc(-c2noc(-c3ccccc3F)n2)c1` ?
inactive

State the result this test recorded for `O=c1cc[nH]c(=O)[nH]1` .
inactive

Assay outcome for CC1(c2ccccc2)OC(C(=O)O)=CC1=O (centres undefined) : what was it?
inactive

Write down the call the test reported for this molecule. Item: `CCn1cc(C(=O)O)c(=O)c2ccc(C)nc21`
inactive

Please share the test call associated with `CCCCCCCCCCCCCCCCNc1ccc(C(=O)O)cc1` .
inactive

// outcome(item) with item = `C[C@H]1C[C@H]2[C@@H]3CCC4=CC(=O)C=C[C@]4(C)[C@H]3C(=O)C[C@]2(C)[C@@]1(O)C(=O)CO`
inactive

Hi, do you know how C[C@@H](c1ncncc1F)C(O)(Cn1cncn1)c1ccc(F)cc1F (some centres undefined) came out in this test?
inactive

// outcome(item) with item = `O=C(O)COC(=O)Cc1ccccc1Nc1c(Cl)cccc1Cl`
inactive

Kindly provide the recorded test outcome for the following molecule: `C=CCNC(N)=S`
inactive

For this molecule, state the assay outcome: `CN(C)CC/C=C1\c2ccccc2Sc2ccc(Cl)cc21`
active

Which outcome was assigned to `CC1=C(CC(=O)O)c2cc(F)ccc2/C1=C\c1ccc(S(C)(=O)=O)cc1` in this test?
inactive

Outcome logged for `CC(C)C(=O)c1c(C(C)C)nn2ccccc12` in this assay:
active

Please let me know the test result on file for `CCCCC(=O)O[C@]1(C(=O)CO)CC[C@H]2[C@@H]3CCC4=CC(=O)CC[C@]4(C)[C@H]3[C@@H](O)C[C@@]21C` .
inactive

What did the test return for CC1(O)CCC(C(C)(C)O)CC1 (centres undefined) ?
inactive

Would you mind telling me which call this test gave `CC(=O)SC[C@@H](C)C(=O)N1CCC[C@H]1C(=O)N[C@@H](Cc1ccccc1)C(=O)O` ?
inactive

Given C[C@H]1[C@H](NC(=O)/C(=N/OC(C)(C)C(=O)O)c2csc(N)n2)C(=O)N1S(=O)(=O)O (stereo in doubt) , state the outcome it received in this test.
inactive

###

# protocol: glucagon-like peptide 1 release enhancers, primary assay, NCI-H716 cell line, NPC library (AID 1117341); also: reference of the scale not given here
# conditionDetails: NCI-H716 cells, at 10 µM, stronger effect = higher value
endpointLabel: GLP1 secretion stimulation (%)
Numbers only, in %.

For orientation, consider the following solved cases.
>  <molecule>
CCOCCn1c(N2CCCN(C)CC2)nc2ccccc21

>  <GLP1 secretion stimulation, %>
-2.3

$$$$
>  <molecule>
COc1nccnc1NS(=O)(=O)c1ccc(N)cc1

>  <GLP1 secretion stimulation, %>
2.7

$$$$
>  <molecule>
Nc1cccc2c1CN(C1CCC(=O)NC1=O)C2=O (stereo unspecified)

>  <GLP1 secretion stimulation, %>
0

$$$$

// for each molecule in input: emit GLP1 secretion stimulation
1. Cc1cc2c(cc1CC(=O)c1sccc1S(=O)(=O)Nc1onc(C)c1Cl)OCO2
2. C[C@]12CC[C@H]3[C@@H](CCC4=CC(=O)CC[C@@]43C)[C@@H]1CC[C@@H]2C(=O)CO
3. C=CCn1c(=O)n([C@@H]2O[C@H](CO)[C@@H](O)[C@H]2O)c2nc(N)[nH]c(=O)c21
4. Cc1oc(=O)oc1CN1CCN(c2cc3c(cc2F)c(=O)c(C(=O)O)c2n3C(C)S2)CC1 (stereo unspecified)
5. [O-][n+]1cccc(CO)c1

2.9
2.7
0.6
2.3
-4.1

Give GLP1 secretion stimulation for each listed item.
1. CCCCCCCCCCCCCCCCCCCCCCO
2. C[C@@H](O)[C@H]1C(=O)N2C(C(=O)O)=C(SCCN=CN)C[C@H]12
3. Cc1cccc(C)c1NC(=O)c1ccccc1C(=O)O

1. 1.1
2. -1.8
3. 1.9
